Values were extracted from PubChem BioAssay AID1963430.

Test system: 521955-158-R2-J5-PDC complex spheroid growth, % test/control;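 also: spheroids exposed to agents for 7 days before readout; 100% = DMSO vehicle control viability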
Test: Anticancer human tumor 521955-158-R2-J5-PDC patient-derived pancreatic carcinoma cell line growth inhibition [Asc]
Settings: second compound 1 µM; first compound 0.001 µM; hits give low values
Text: Multicellular complex tumor spheroid response to apoptosis pathway targeting inhibitors Alrizomadlin, Pelcitoclax, and Dasminapant in combination with a variety of drugs and investigational agents in selected tumor cell lines […] Compounds. […] If the clinical Cmax for an agent had not been determined, the highest concentration tested was 10 microM. […]
# key: entry, value: viability, T/C
Report the value in % with no unit label.

*Q* What value of measured viability, T/C is listed for Cn1ncnc1[C@H]1c2n[nH]c(=O)c3cc(F)cc(c23)N[C@@H]1c1ccc(F)cc1 + Cc1c(S(C)(=O)=O)c(-c2cc(F)cc(N3CCN(c4ccc(NS(=O)(=O)c5ccc(NC(CCN6CCC(C(=O)OCCCP(=O)(O)O)CC6)CSc6ccccc6)c(S(=O)(=O)C(F)(F)F)c5)cc4)CC3)c2)c(-c2ccc(Cl)cc2)n1C(C)C ?
*A* 85
